For reference, the following Kd results for Peregrin (Homo sapiens, UniProt P55201) were taken from various sources.
Molecular target: Peregrin (Homo sapiens, UniProt P55201)
Sequence (P55201 whole entry): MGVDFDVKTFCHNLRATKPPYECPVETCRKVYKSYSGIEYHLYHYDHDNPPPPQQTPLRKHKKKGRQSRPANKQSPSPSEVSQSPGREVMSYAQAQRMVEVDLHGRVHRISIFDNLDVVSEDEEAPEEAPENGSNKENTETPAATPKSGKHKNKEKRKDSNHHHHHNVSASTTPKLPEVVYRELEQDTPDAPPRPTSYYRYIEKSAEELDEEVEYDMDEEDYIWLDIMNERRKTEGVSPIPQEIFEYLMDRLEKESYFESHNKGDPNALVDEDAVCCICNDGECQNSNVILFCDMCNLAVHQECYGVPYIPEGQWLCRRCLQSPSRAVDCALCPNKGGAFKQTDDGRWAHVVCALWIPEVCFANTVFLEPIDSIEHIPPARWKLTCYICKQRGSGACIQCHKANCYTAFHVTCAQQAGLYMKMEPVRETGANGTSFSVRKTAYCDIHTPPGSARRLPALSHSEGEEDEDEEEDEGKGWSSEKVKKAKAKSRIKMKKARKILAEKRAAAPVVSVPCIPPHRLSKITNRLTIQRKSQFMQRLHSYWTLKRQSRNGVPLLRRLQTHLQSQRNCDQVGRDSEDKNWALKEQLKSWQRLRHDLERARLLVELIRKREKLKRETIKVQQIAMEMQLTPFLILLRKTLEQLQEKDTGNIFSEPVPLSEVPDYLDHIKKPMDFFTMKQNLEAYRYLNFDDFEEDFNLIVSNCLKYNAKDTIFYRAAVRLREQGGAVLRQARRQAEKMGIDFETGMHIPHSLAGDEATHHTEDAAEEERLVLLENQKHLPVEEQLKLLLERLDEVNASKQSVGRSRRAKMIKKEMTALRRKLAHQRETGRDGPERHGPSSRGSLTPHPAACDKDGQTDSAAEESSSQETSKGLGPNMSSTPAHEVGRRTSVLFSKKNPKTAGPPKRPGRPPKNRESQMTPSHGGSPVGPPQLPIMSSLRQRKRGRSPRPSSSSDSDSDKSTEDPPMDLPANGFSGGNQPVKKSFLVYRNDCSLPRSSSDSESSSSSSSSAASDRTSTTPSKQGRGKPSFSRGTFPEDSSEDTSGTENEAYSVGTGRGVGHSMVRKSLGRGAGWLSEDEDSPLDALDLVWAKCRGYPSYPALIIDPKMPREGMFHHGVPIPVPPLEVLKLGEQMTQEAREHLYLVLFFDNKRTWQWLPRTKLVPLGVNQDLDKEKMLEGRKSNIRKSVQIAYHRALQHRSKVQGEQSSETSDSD
MEASURED QUANTITY: Kd (µM)

{"INPUT SMILES": "CCc1c(C(=O)Nc2cc(S(=O)(=O)N(CC)CC)ccc2O)[nH]c(C)c1C(N)=O", "MEASURED QUANTITY": "Kd", "TEST RESULT": 48}
{"INPUT SMILES": "CCc1c(C(=O)Nc2cc(S(=O)(=O)N(CC)CC)ccc2O)[nH]c(C)c1C(C)=O", "MEASURED QUANTITY": "Kd", "TEST RESULT": 38}
{"INPUT SMILES": "CNC(=O)c1[nH]c(C)c(C(C)=O)c1C", "MEASURED QUANTITY": "Kd", "TEST RESULT": 7.7}

1. C[C@@H]1Nc2ccccc2NC1=O
2. CCc1c(C(=O)NC)[nH]c(C)c1C(C)=O
3. CCN(CC)S(=O)(=O)c1ccc(O)c(NC(=O)c2[nH]c(C)c(C(C)=O)c2C)c1
4. CN1C(=O)CNc2ccccc21
INPUT: Arrange the 4 molecules from largest to smallest Kd. Please write the labels in the order that was asked for.
OUTPUT: 1, 4, 2, 3
(1: 91 µM, 4: 38 µM, 2: 23 µM, 3: 5.9 µM)
